experiment: Aniono-phoric activity in egg-yolk L-aphosphatidylcholine vesicle assessed as increase in efflux of chloride ion at 0.5 mol% by electrode technique
Activity calls are given as the source filed them. The calls are words filed in the database; no cut-off is given here.
Classes used: active, inactive

In [3]: df
Out[3]:
                            chemical_smiles  assigned_label
0  O=c1cc(CN2CCOCC2)c2ccc(Nc3c(Nc4ccc(C(F)(F)F)cc4)c(=O)c3=O)cc2o1        inactive
1  O=c1cc(CN2CCOCC2)c2ccc(Nc3c(Nc4cc(C(F)(F)F)cc(C(F)(F)F)c4)c(=O)c3=O)cc2o1          active
2  Cc1cc(=O)oc2cc(Nc3c(Nc4ccc(N5CCOCC5)cc4)c(=O)c3=O)ccc12        inactive
3  Cc1cc(=O)oc2cc(Nc3c(Nc4ccccc4)c(=O)c3=O)ccc12        inactive
